# Tested on: Streptococcus pyogenes
# measurement_protocol: Antibacterial activity against constitutive macrolide-lincosamide-streptogramin B-resistant Streptococcus pyogenes B0544 by agar microdilution method
# Assay type: functional
Exercise: state measured MIC for each of the compounds provided.
Numbers only, in µg/mL.

Check out these entries, answers already filled in.
- compound: "CC[C@H]1OC(=O)[C@H](C)C(=O)[C@H](C)[C@@H](O[C@@H]2O[C@H](C)C[C@H](N(C)C)[C@H]2O)[C@](C)(OCC(O)CNCCc2ccccn2)C[C@@H](C)NC(=O)[C@H](C)[C@@H](O)[C@]1(C)O (mixture of isomers)"
  MIC / µg/mL: 32
- compound: "CC[C@H]1OC(=O)[C@H](C)C(=O)[C@H](C)[C@@H](O[C@@H]2O[C@H](C)C[C@H](N(C)C)[C@H]2O)[C@](C)(OC[C@@H](O)CNCCNc2ccc3ncccc3c2)C[C@@H](C)NC(=O)[C@H](C)[C@@H](O)[C@]1(C)O"
  MIC / µg/mL: 1

Identify the reported MIC for the following entry. CC[C@H]1OC(=O)[C@H](C)C(=O)[C@H](C)[C@@H](O[C@@H]2O[C@H](C)C[C@H](N(C)C)[C@H]2O)[C@](C)(OCC(O)CN2CCN(c3cnc4ccccc4c3)CC2)C[C@@H](C)NC(=O)[C@H](C)[C@@H](O)[C@]1(C)O (some centres undefined)
32

---

# Tested on: Staphylococcus aureus
# measurement_protocol: Antibacterial activity against erythromycin A-susceptible Staphylococcus aureus B0329 by agar microdilution method
property_measured: MIC (µg/mL)
Numbers only, in µg/mL.

Check out these entries, answers already filled in.
- molecule: "CC[C@H]1OC(=O)[C@H](C)C(=O)[C@H](C)[C@@H](O[C@@H]2O[C@H](C)C[C@H](N(C)C)[C@H]2O)[C@](C)(OCC(O)CN2CCN(c3ccc4ncccc4c3)CC2)C[C@@H](C)NC(=O)[C@H](C)[C@@H](O)[C@]1(C)O (stereo partly specified)"
  observed_result: 0.25
- molecule: "CC[C@H]1OC(=O)[C@H](C)C(=O)[C@H](C)[C@@H](O[C@@H]2O[C@H](C)C[C@H](N(C)C)[C@H]2O)[C@](C)(OCC(O)CNCc2cnc3ccccc3c2)C[C@@H](C)NC(=O)[C@H](C)[C@@H](O)[C@]1(C)O (mixture of isomers)"
  observed_result: 1
- molecule: "CC[C@H]1OC(=O)[C@H](C)C(=O)[C@H](C)[C@@H](O[C@@H]2O[C@H](C)C[C@H](N(C)C)[C@H]2O)[C@](C)(OCC(O)CNc2cnc3ccccc3c2)C[C@@H](C)NC(=O)[C@H](C)[C@@H](O)[C@]1(C)O (stereo partly specified)"
  observed_result: 2
- molecule: "CC[C@H]1OC(=O)[C@H](C)[C@@H](O[C@H]2C[C@@](C)(OC)[C@@H](O)[C@H](C)O2)[C@H](C)[C@@H](O[C@@H]2O[C@H](C)C[C@H](N(C)C)[C@H]2O)[C@](C)(O)C[C@@H](C)CN(C)[C@H](C)[C@@H](O)[C@]1(C)O"
  observed_result: 1
- molecule: "CC[C@H]1OC(=O)[C@H](C)C(=O)[C@H](C)[C@@H](O[C@@H]2O[C@H](C)C[C@H](N(C)C)[C@H]2O)[C@](C)(OCC(O)CN2CCN(c3cccc(C(F)(F)F)c3)CC2)C[C@@H](C)NC(=O)[C@H](C)[C@@H](O)[C@]1(C)O (mixture of isomers)"
  observed_result: 4
- molecule: "C=CCO[C@]1(C)C[C@@H](C)NC(=O)[C@H](C)[C@@H](O)[C@](C)(O)[C@@H](CC)OC(=O)[C@H](C)C(=O)[C@H](C)[C@H]1O[C@@H]1O[C@H](C)C[C@H](N(C)C)[C@H]1O"
  observed_result: 8
- molecule: "CC[C@H]1OC(=O)[C@H](C)C(=O)[C@H](C)[C@@H](O[C@@H]2O[C@H](C)C[C@H](N(C)C)[C@H]2O)[C@](C)(OCC(O)CNCCCc2ccccc2)C[C@@H](C)NC(=O)[C@H](C)[C@@H](O)[C@]1(C)O (stereo partly specified)"
  observed_result: 4
- molecule: "CC[C@H]1OC(=O)[C@H](C)C(=O)[C@H](C)[C@@H](O[C@@H]2O[C@H](C)C[C@H](N(C)C)[C@H]2O)[C@](C)(OCC(O)CNCCCCc2cccnc2)C[C@@H](C)NC(=O)[C@H](C)[C@@H](O)[C@]1(C)O (stereo partly specified)"
  observed_result: 0.5

Let's switch to this molecule now.
Give MIC only, for CC[C@H]1OC(=O)[C@H](C)C(=O)[C@H](C)[C@@H](O[C@@H]2O[C@H](C)C[C@H](N(C)C)[C@H]2O)[C@](C)(OCC(O)CN[C@H](C)Cc2ccc([N+](=O)[O-])cc2)C[C@@H](C)NC(=O)[C@H](C)[C@@H](O)[C@]1(C)O (mixture of isomers) , using Staphylococcus aureus data.
0.5

---

Exercise: state measured MIC for each of the compounds provided.
# Test system: Staphylococcus aureus
# measurement_protocol: Antibacterial activity against erythromycin A-susceptible Staphylococcus aureus B0329 by agar microdilution method
Numbers only, in µg/mL.

Check out these entries, answers already filled in.
- compound: "CC[C@H]1OC(=O)[C@H](C)C(=O)[C@H](C)[C@@H](O[C@@H]2O[C@H](C)C[C@H](N(C)C)[C@H]2O)[C@](C)(OCC(O)CNCCCCc2ccccn2)C[C@@H](C)NC(=O)[C@H](C)[C@@H](O)[C@]1(C)O (some centres undefined)"
  study_target: "Staphylococcus aureus"
  unit_abbreviation: "µg/mL"
  MIC: 1
- compound: "CC[C@H]1OC(=O)[C@H](C)C(=O)[C@H](C)[C@@H](O[C@@H]2O[C@H](C)C[C@H](N(C)C)[C@H]2O)[C@](C)(OCC2CO2)C[C@@H](C)NC(=O)[C@H](C)[C@@H](O)[C@]1(C)O (some centres undefined)"
  study_target: "Staphylococcus aureus"
  unit_abbreviation: "µg/mL"
  MIC: 4

Let's switch to this compound now.
Identify the reported MIC for the following entry. CC[C@H]1OC(=O)[C@H](C)C(=O)[C@H](C)[C@@H](O[C@@H]2O[C@H](C)C[C@H](N(C)C)[C@H]2O)[C@](C)(OCC(O)CN2CCN(c3ccc(C(C)=O)cc3)CC2)C[C@@H](C)NC(=O)[C@H](C)[C@@H](O)[C@]1(C)O (mixture of isomers)
2

---

Exercise: state measured MIC for each of the molecules provided.
# Test system: Staphylococcus aureus
# measurement_protocol: Antibacterial activity against inducible macrolide-lincosamide-streptogramin B-resistant Staphylococcus aureus B0538 by agar microdilution method
# Type: functional
Numbers only, in µg/mL.

- molecule: "CC[C@H]1OC(=O)[C@H](C)C(=O)[C@H](C)[C@@H](O[C@@H]2O[C@H](C)C[C@H](N(C)C)[C@H]2O)[C@](C)(OCC(O)CN[C@H](C)Cc2ccc([N+](=O)[O-])cc2)C[C@@H](C)NC(=O)[C@H](C)[C@@H](O)[C@]1(C)O (mixture of isomers)"
  study_target: "Staphylococcus aureus"
  unit_abbreviation: "µg/mL"
  MIC: 2
- molecule: "CC[C@H]1OC(=O)[C@H](C)C(=O)[C@H](C)[C@@H](O[C@@H]2O[C@H](C)C[C@H](N(C)C)[C@H]2O)[C@](C)(OC[C@H](O)CNCCNc2ccc3ncccc3c2)C[C@@H](C)NC(=O)[C@H](C)[C@@H](O)[C@]1(C)O"
  study_target: "Staphylococcus aureus"
  unit_abbreviation: "µg/mL"
  MIC: 0.25
- molecule: "CC[C@H]1OC(=O)[C@H](C)C(=O)[C@H](C)[C@@H](O[C@@H]2O[C@H](C)C[C@H](N(C)C)[C@H]2O)[C@](C)(OCC=Cc2cnc3ccccc3c2)C[C@@H](C)C(=O)[C@H](C)[C@H]2NC(=O)O[C@@]21C"
  study_target: "Staphylococcus aureus"
  unit_abbreviation: "µg/mL"
  MIC: 0.25
- molecule: "CC[C@H]1OC(=O)[C@H](C)C(=O)[C@H](C)[C@@H](O[C@@H]2O[C@H](C)C[C@H](N(C)C)[C@H]2O)[C@](C)(OCC(O)CNCCCCc2ccccc2)C[C@@H](C)NC(=O)[C@H](C)[C@@H](O)[C@]1(C)O (mixture of isomers)"
  study_target: "Staphylococcus aureus"
  unit_abbreviation: "µg/mL"
  MIC: 2
- molecule: "CC[C@H]1OC(=O)[C@H](C)C(=O)[C@H](C)[C@@H](O[C@@H]2O[C@H](C)C[C@H](N(C)C)[C@H]2O)[C@](C)(OCC(O)CNc2cnc3ccccc3c2)C[C@@H](C)NC(=O)[C@H](C)[C@@H](O)[C@]1(C)O (stereo partly drawn)"
  study_target: "Staphylococcus aureus"
  unit_abbreviation: "µg/mL"
  MIC: 2
- molecule: "CC[C@H]1OC(=O)[C@H](C)C(=O)[C@H](C)[C@@H](O[C@@H]2O[C@H](C)C[C@H](N(C)C)[C@H]2O)[C@](C)(OCC(O)CN2CCN(c3ccc([N+](=O)[O-])cc3)CC2)C[C@@H](C)NC(=O)[C@H](C)[C@@H](O)[C@]1(C)O (stereo partly drawn)"
  study_target: "Staphylococcus aureus"
  unit_abbreviation: "µg/mL"
  MIC: 2

Let's switch to this molecule now.
Identify the reported MIC for the following entry. CC[C@H]1OC(=O)[C@H](C)C(=O)[C@H](C)[C@@H](O[C@@H]2O[C@H](C)C[C@H](N(C)C)[C@H]2O)[C@](C)(OCC(O)CN2CCN(c3cnc4ccccc4c3)CC2)C[C@@H](C)NC(=O)[C@H](C)[C@@H](O)[C@]1(C)O (stereo partly drawn)
2
